Test system: MCF7 cells (breast tumor cells) WT
Assay: Test B: cell proliferation/viability assay (CellTiter-Glo) on MCF7 WT
Format: cell-based
Conditions: Homo sapiens, MCF7, 168 h, 7 days of compound exposure
Hi! Could you tag entries with IC50 below 0.4 nM as rule met, and those at or above as rule not met? Much appreciated.

Check out these entries, answers already filled in.
>  <Compound>
Oc1ccc2c(c1)SCCC(c1cccc3[nH]ccc13)=C2c1ccc(O[C@H]2CCN(CCCF)C2)cc1 [Example 178]

>  <Test system>
MCF7 cells (breast tumor cells) WT

>  <Class name>
rule not met

$$$$
>  <Compound>
Oc1ccc2c(c1F)CCCC(c1ccc(Cl)cc1Cl)=C2c1ccc(O[C@H]2CCN(CCCF)C2)nc1 [Example 245]

>  <Test system>
MCF7 cells (breast tumor cells) WT

>  <Class name>
rule met

$$$$
>  <Compound>
COc1ccc(C2=C(c3ccc(O[C@H]4CCN(CCCF)C4)cc3)c3ccc(O)cc3OCC2)c(Cl)c1 [Example 154]

>  <Test system>
MCF7 cells (breast tumor cells) WT

>  <Class name>
rule met

$$$$
>  <Compound>
CCN(CC)c1ccc(C2=C(c3ccc(O[C@H]4CCN(CCCF)C4)cc3)c3ccc(O)cc3SCC2)c(F)c1 [Example 224]

>  <Test system>
MCF7 cells (breast tumor cells) WT

>  <Class name>
rule not met

$$$$
>  <Compound>
Cc1ccc(C2=C(c3ccc(O[C@H]4CCN(CCCF)C4)nc3)c3ccc(O)cc3SC2)c(F)c1 [Example 78]

>  <Test system>
MCF7 cells (breast tumor cells) WT

>  <Class name>
rule met

$$$$

Given CC(C)(C)c1ccc(C2=C(c3ccc(O[C@H]4CCN(CCCF)C4)cc3)c3ccc(O)cc3SC2)c(F)n1 [Example 75] , is recorded IC50 strictly lower than 0.4 nM?
rule not met

Does this compound meet the criterion IC50 < 0.4 nM? Cc1ccc(C2=C(c3ccc(O[C@H]4CCN(CCCF)C4)cc3)c3ccc(O)cc3SCC2)c(F)n1 [Example 192]
rule met

Quick check: IC50 of Oc1ccc2c(c1)CCCC(c1ccc(Cl)cc1Cl)=C2c1cnc(O[C@H]2CCN(CCCF)C2)nc1 [Example 238] under 0.4 nM?
rule met

Just wondering, is IC50 of Cc1nc(C)c(C2=C(c3ccc(O[C@H]4CCN(CCCF)C4)cc3)c3ccc(O)cc3SC2)s1 [Example 68] below 0.4 nM?
rule not met

Report whether reported IC50 is lower than 0.4 nM (strictly) for Oc1ccc2c(c1)CCCC(c1ccc(Cl)c(F)c1)=C2c1cnc(O[C@H]2CCN(CCCF)C2)cn1 [Example 243]
rule met

Please indicate whether the reported IC50 of Oc1ccc2c(c1)SCCC(c1ccc(Cl)cc1Cl)=C2c1ccc(O[C@H]2CCN(CCCF)C2)nc1 [Example 205] is strictly below 0.4 nM.
rule met

Dear reviewer, please state whether Oc1ccc2c(c1)SCC(c1ccc(OCF)cc1)=C2c1ccc(O[C@H]2CCN(CCCF)C2)cc1 [Example 60] has IC50 strictly beneath 0.4 nM.
rule not met
